Tested on: HeLa cells
Assay: cells
Assay type: cell-based
Conditions: Homo sapiens; HeLa, 48 h, cytotoxic effect; read-out: IC50
REPORTED ENDPOINT: IC50 (µM)
Expressed in µM, but write only the number.

Item under review: CCc1cc2c(cc1-c1cc[nH]n1)C(C)(C)c1[nH]c3cc(C#N)ccc3c1C2=O [JH-VII-139-1] . Reported IC50? 14

----------
Assay: MTT assay, summary over the cell panel
Assay type: cell-based
Details: human, MDA-MB-231 and K562 cancer cells; HeLa, MCF-7, MDA-MB-231 and K562; 48 h; read-out: IC50 (cytotoxic effect), range over compounds and cell lines
REPORTED ENDPOINT: IC50 at 48 h

Dear colleague, I am looking for the recorded IC50 at 48 h of the following molecule: CCc1cc2c(cc1-c1cc[nH]n1)C(C)(C)c1[nH]c3cc(C#N)ccc3c1C2=O 3 to 18 µM
